measurement_protocol: Tmax value after oral dose of 3 mg/kg
Type: ADME, organism-based
Set-up: dose 3 mg/kg, route oral
setup_conditions: in vivo
readout_kind: Tmax (min)
One number for each entry, in min.

// recorded Tmax for CCCN(Cc1ccc(-c2ccccc2-c2nnn[nH]2)cc1)c1ncccc1C(=O)O : 54

---

measurement_protocol: Half-life period after oral dose of 0.3 mg/kg
Assay type: ADME, organism-based
Parameters: dose 0.3 mg/kg, route oral
setup_conditions: in vivo
readout_kind: half-life

// recorded half-life for CCCN(Cc1ccc(-c2ccccc2-c2nnn[nH]2)cc1)c1ncccc1C(=O)O : > 12 h

---

measurement_protocol: Cmax value after oral dose of 0.3 mg/kg
Assay type: ADME, organism-based
Design: dose 0.3 mg/kg, route oral
setup_conditions: in vivo
readout_kind: Cmax (ng/mL)
Numbers only, in ng/mL.

// recorded Cmax for CCCN(Cc1ccc(-c2ccccc2-c2nnn[nH]2)cc1)c1ncccc1C(=O)O : 1350

Hey, just so you know, these numbers are from ChEMBL document CHEMBL1126796.
